Origin of measurements: patent US20240391945A1

Assay: pKa values in water of the activators
Assay type: physicochemical
Conditions: read-out: pKa in H2O
metric_name: pKa

Q. For the compound shown here, c1ccc(CSc2nnn[nH]2)cc1 [BTT, 5-benzylthiotetrazole] , give the reported pKa.
A. 4.1

Q. Field entry: Sc1nnnn1-c1ccccc1 [Activator 1-Ph-MCT, 5-mercapto-1-phenyltetrazole]
A. 3.65

Q. Field entry: Cn1nnnc1S [Activator 1-Me-MCT, 5-mercapto-1-methyltetrazole]
A. 3.86

Q. Field entry: CCSc1nnn[nH]1 [ETT, 5-ethylthio-1H-tetrazole]
A. 4.3
